- System: Pseudomonas aeruginosa
- PROTOCOL DETAILS: Induction of bacterial aggregation in Pseudomonas aeruginosa PAO1 expressing deltalecB mutant assessed as number of aggregates per 100 uL of PBS cell solution at 100 uM by optical microscopy
- Assay type: functional
READOUT NAME: Activity

>>> observed_measurement("CC(C)(C)c1cc2c(OCc3cn(CCOCCOCCO[C@H]4O[C@H](CO)[C@@H](O)[C@H](O)[C@@H]4O)nn3)c(c1)Cc1cc(C(C)(C)C)cc(c1OCc1cn(CCOCCOCCO[C@H]3O[C@H](CO)[C@@H](O)[C@H](O)[C@@H]3O)nn1)Cc1cc(C(C)(C)C)cc(c1OCc1cn(CCOCCOCCO[C@H]3O[C@H](CO)[C@@H](O)[C@H](O)[C@@H]3O)nn1)Cc1cc(C(C)(C)C)cc(c1OCc1cn(CCOCCOCCO[C@H]3O[C@H](CO)[C@@H](O)[C@H](O)[C@@H]3O)nn1)C2")
11
